# test-target: JNK1 (Homo sapiens, UniProt P45983)
# Sequence (P45983 1-384 isoform P45983-2): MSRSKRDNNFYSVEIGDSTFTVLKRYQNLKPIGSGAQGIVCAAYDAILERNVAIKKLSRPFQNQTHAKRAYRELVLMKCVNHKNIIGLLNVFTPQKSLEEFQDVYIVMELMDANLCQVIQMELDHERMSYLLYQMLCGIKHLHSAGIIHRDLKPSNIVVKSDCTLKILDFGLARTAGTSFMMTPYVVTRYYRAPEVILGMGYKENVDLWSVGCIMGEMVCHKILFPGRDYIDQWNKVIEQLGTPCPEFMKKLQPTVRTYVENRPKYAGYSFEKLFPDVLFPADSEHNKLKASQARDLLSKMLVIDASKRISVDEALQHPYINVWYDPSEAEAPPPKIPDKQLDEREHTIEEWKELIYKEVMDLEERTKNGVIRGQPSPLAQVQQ
# assay-name: KINOMEscan competition binding assay, selectivity JNK1 versus MKK4
# condition-notes: Test conc 0.1 μM; ratio of percent of control; N/E* = PoC for JNK1 = 100
# key: entry, value: Selectivity JNK1/MKK4
Output: the number by itself.

Worked examples follow.
CS(=O)(=O)Nc1cccc(C(=O)c2c[nH]c3ncc(-c4cc5c(cc4Cl)OCO5)cc23)c1F; 10
CCCS(=O)(=O)Nc1ccc(F)c(C(=O)c2c[nH]c3ncc(-c4ccc(OC(C)C)cc4Cl)cc23)c1F; 8.7

Next compound, please.
Query string: Write down Selectivity JNK1/MKK4 measured for item `CCCCS(=O)(=O)Nc1cccc(C(=O)c2c[nH]c3ncc(-c4cc5c(cc4Cl)OCO5)cc23)c1F`
Result string: 14
